# System: MDA-MB-435 melanoma
# EXPERIMENTAL PROTOCOL: NCI-60 one-dose screen, 48 h (100 = growth as untreated, 0 = no growth, -100 = all killed)
# CONDITIONS USED: 10 µM unless noted
This is part of a sample that, as a whole, favours compounds with a hit. Of some 83,000 tested, about 20% had one in any assay.
Assign labels as follows, please: Criterion met for growth below 40%; Criterion not met for growth equal to or exceeding 40%.

>>> category("C[C@@H]1C[C@@]2(C)[C@@H](CC[C@@H]3[C@@H]2CC[C@]2(C)C(=O)CC[C@@H]32)CC1=O")
"Criterion not met"
>>> category("COC(=O)CC12CC(NC(=O)c3csc([C@@H](C[C@H](C(C)C)N(C)C(=O)[C@@H](NC(=O)[C@H]4CCCCN4C)C(C)C)OC(C)=O)n3)(C1)C2")
"Criterion met"
>>> category("CCN(CCO)C(Cc1ccccc1)c1ccccc1 (stereo not given)")
"Criterion not met"
>>> category("CCCCOc1ccc(C(N)Cc2ccccc2)cc1 (stereo not given)")
"Criterion not met"
>>> category("NC(CCl)CCl")
"Criterion not met"
>>> category("COc1ccc(C(=O)c2sc3nc4c(cc3c2N)N2CCC4CC2)cc1OC")
"Criterion not met"
>>> category("CC(=O)[O][Hg][c]1c(N)c(C)cc(C)c1F")
"Criterion met"
>>> category("CCN(CC)CCOC(=O)C(OC(C)C)(c1ccccc1)c1ccccc1")
"Criterion not met"
>>> category("CC1(C)N=C(N)N=C(N)N1c1ccc(CCCCc2ccc(Cl)c(S(=O)(=O)F)c2)c(Cl)c1")
"Criterion met"
>>> category("C=CC12CCN(CC1)C(C(O)c1ccnc3ccc(OC)cc13)C2 (stereo not given)")
"Criterion not met"

====

Items are presented alongside their recorded growth.
# Test system: NCI-H522 lung
# EXPERIMENTAL PROTOCOL: NCI-60 one-dose screen, 48 h (100 = growth as untreated, 0 = no growth, -100 = all killed)
# CONDITIONS USED: 10 µM unless noted
# Description: Growth inhibition of the NCI-H522 human Non-Small Cell Lung tumor cell line is measured as a screen for anti-cancer activity. Cells are grown in 96 well plates and exposed to the test compound for 48 hours. Compounds are tested at a single concentration, which is 10^-5 M for most compounds. The reported endpoint is percent growth (GI% or GIPRCNT), where numbers from 0 - 100% represent growth inhibition, and numbers from -100% - 0 represent cell death. […]
Compounds without any hit were thinned out: in the full panel of roughly 83,000, 20% have a hit.
PROPERTY: growth (%)

>>> observed_value("O=P(Oc1ccc(Cl)cc1)(N1CC1)N1CC1")
66.8
>>> observed_value("Nc1ccc2c(c1)oc1ccccc12")
95.9
>>> observed_value("O=C(O)C1C(C(=O)O)C2(Cl)C(Cl)=C(Cl)C1(Cl)C2(Cl)Cl.[Hg] (centres undefined)")
-50.2
>>> observed_value("COc1ccc(/C=C/c2cc(OC)c(OC)c(OC)c2)cc1NC(=O)/C=C/c1ccc(F)cc1")
-8.36
>>> observed_value("COC(=O)C12CC(NC(=O)c3csc([C@@H](C[C@H](C(C)C)N(C)C(=O)[C@@H](NC(=O)[C@H]4CCCCN4C)C4CC4)OC(C)=O)n3)(C1)C2")
-4.14
>>> observed_value("CCN(CC)CCOC(=O)C(OC(C)C)(c1ccccc1)c1ccccc1")
82.3
>>> observed_value("O=P(N1CC1)(N1CC1)N1CCc2ccccc21")
109
>>> observed_value("CCOC(=S)S[C@H]1C[C@@H]2[C@H](CC[C@]3(C)C(=O)CC[C@@H]23)[C@@]2(C)CCC(=O)C=C12")
95.6
>>> observed_value("COc1ccc(/C=C\\c2cc(OC)c(OC)c(OC)c2)c(NS(=O)(=O)c2ccc(C)cc2)c1O")
-17.3
